Target: human NCX1 (Homo sapiens, UniProt P32418)
Construct: expressed in transfected cells
Assay: Inhibition of Ca2+ influx into cells (NCX1 reverse mode), FLIPR Fluo-4 assay
Format: cell-based
Conditions: inhibition of NCX1 in reverse mode (Ca2+ influx into cells); read-out: NCX1rv IC50
Counter-ions that a name gives are not always drawn.
QUANTITY: IC50 (nM)
Report the figure in nM without appending any unit label.

Sample records with IC50:
Cc1cc(CN(Cc2cc(C)on2)[C@H]2CC[C@H](Oc3ccc4c(c3)CCC(c3ccccc3)O4)CC2)no1 (some centres unmarked) [compound 82]    3800
CCn1nccc1CNC(=O)C1CCC(Oc2ccc3c(c2Cl)CCC(c2ccccc2)O3)CC1 (centres unmarked) [compound 293]    4700
Cc1ccnn1CCC(=O)N[C@H]1CC[C@H](Oc2ccc3c(c2)CCC(c2ccccc2F)O3)CC1 (relative stereo) [compound 257]    200
c1ccc(C2CCc3cc(O[C@H]4CC[C@H](N(Cc5cncs5)Cc5cncs5)CC4)ccc3O2)cc1 (some centres unmarked) [compound 83]    1400
C[C@H]1CC[C@H](NC2CCC(Oc3ccc4c(c3)CCC(c3ccccc3)O4)CC2)CC1 (relative stereo) [compound 146]    2000
c1ccc(C2CCc3cc(O[C@H]4CC[C@H](N(CC5CC5)CC5CC5)CC4)ccc3O2)cc1 (some centres unmarked) [compound 80]    500

Query: IC50; subject: Cc1n[nH]cc1CN[C@H]1CC[C@H](Oc2ccc3c(c2)CCC(c2ccccc2)O3)CC1 (some centres unmarked) [compound 66]
400

Query: IC50; subject: Cn1cc(Cl)c(CN[C@H]2CC[C@H](Oc3ccc4c(c3)CCC(c3ccccc3)O4)CC2)n1 (some centres unmarked) [compound 62]
600

Query: IC50; subject: O=S(=O)(CCc1ccncc1)N[C@H]1CC[C@H](Oc2ccc3c(c2)CC[C@@H](c2ccccc2)O3)CC1 [compound 75]
1000

Query: IC50; subject: Cc1nc(CN(Cc2csc(C)n2)[C@H]2CC[C@H](Oc3ccc4c(c3)CCC(c3ccccc3)O4)CC2)cs1 (some centres unmarked) [compound 86]
800

Query: IC50; subject: CC(C)SCCNC1CCC(Oc2ccc3c(c2)CCC(c2ccccc2F)O3)CC1 (centres unmarked) [compound 232]
5900

Query: IC50; subject: c1ccc(C2CCc3cc(O[C@H]4CC[C@H](N(Cc5ccoc5)Cc5ccoc5)CC4)ccc3O2)cc1 (some centres unmarked) [compound 85]
800

Query: IC50; subject: O=C(CCn1cncn1)N[C@H]1CC[C@H](Oc2ccc3c(c2)CCC(c2ccccc2)O3)CC1 (relative stereo) [compound 38]
400

Query: IC50; subject: c1ccc(C2CCc3cc(O[C@H]4CC[C@H](NCc5ccsc5)CC4)ccc3O2)cc1 (relative stereo) [compound 50]
600

Query: IC50; subject: N[C@H]1C[C@@H](Oc2ccc3c(c2)CCC(c2ccccc2)O3)C1 (relative stereo) [compound 306, hydrochloride]
1600

Query: IC50; subject: Cc1c(F)cccc1C1CCc2cc(OC3CCC(C(=O)NC4CCCCC4O)CC3)ccc2O1 (single isomer, unassigned) [compound 286]
500

Query: IC50; subject: N[C@@H]1CC[C@@H](Oc2ccc3c(c2)CCC(c2ccccc2)O3)C1 (some centres unmarked) [compound 304, hydrochloride]
600

Query: IC50; subject: CCC(C)CCNC1CCC(Oc2ccc3c(c2)CCC(c2ccccc2)O3)CC1 (centres unmarked) [compound 114]
700

Query: IC50; subject: O=C(NCCO)C1CCC(Oc2ccc3c(c2Cl)CCC(c2ccccc2)O3)CC1 (centres unmarked) [compound 291]
1100

Query: IC50; subject: CSCCNC1CCC(Oc2ccc3c(c2)CCC(c2ccccc2F)O3)CC1 (centres unmarked) [compound 226]
2400
